Quick reference for IC50 among some compounds
Target: Sentrin-specific protease 7 (Homo sapiens);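 note: Luminescence-based dose-response confirmation of ultra-high-throughput screening hits, measuring inhibition of SENP7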
Sequence (Q9BQF6 whole entry): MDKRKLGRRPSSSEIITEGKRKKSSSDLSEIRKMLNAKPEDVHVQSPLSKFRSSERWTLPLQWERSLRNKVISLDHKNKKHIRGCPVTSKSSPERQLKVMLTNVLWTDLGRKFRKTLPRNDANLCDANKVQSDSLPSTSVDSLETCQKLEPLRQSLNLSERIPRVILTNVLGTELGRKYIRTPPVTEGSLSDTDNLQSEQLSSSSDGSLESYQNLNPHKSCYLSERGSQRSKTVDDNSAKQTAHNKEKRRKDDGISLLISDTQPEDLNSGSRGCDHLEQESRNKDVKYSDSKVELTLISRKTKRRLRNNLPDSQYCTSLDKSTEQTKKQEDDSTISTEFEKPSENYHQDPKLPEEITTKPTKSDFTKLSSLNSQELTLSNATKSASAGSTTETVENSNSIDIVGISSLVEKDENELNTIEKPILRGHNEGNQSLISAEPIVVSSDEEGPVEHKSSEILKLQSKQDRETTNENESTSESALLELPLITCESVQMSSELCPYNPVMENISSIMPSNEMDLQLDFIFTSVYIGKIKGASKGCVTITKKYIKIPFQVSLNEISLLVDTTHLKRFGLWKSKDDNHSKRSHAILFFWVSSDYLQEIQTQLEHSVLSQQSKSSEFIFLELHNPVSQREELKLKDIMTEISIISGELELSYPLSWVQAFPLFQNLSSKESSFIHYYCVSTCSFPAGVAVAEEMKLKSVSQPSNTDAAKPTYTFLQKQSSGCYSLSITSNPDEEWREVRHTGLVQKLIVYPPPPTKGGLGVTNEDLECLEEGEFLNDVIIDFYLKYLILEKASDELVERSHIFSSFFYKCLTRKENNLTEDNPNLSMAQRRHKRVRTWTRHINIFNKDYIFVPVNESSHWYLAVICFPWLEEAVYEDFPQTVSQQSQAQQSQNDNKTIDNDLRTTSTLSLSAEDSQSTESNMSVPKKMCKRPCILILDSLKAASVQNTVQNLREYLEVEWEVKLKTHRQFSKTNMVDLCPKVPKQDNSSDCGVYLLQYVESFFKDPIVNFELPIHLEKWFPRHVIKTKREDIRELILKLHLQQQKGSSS
Assay type: functional
Calls of active or inactive are those of the source.
PROPERTY MEASURED: IC50

In [3]: df
Out[3]:
                       chemical_structure    endpoint_value
0     c1ccc(CCNc2ncnc3c2cnn3-c2ccccc2)cc1  7.14 µM (active)
1          COc1ccc(-c2noc(Cc3cccs3)n2)cc1  9.93 µM (active)
2  CCCOc1cc2c(C#N)c(N3CCCC3)nc(N)c2c(N)n1  4.45 µM (active)
3   O=C(O)c1ccc(COc2ccccc2[N+](=O)[O-])o1  10.5 µM (active)
4      O=C(N/N=C/C(Cl)=C\c1ccccc1)c1cccs1  5.83 µM (active)

----------
Biological target: Cytochrome P450 3A4 (Homo sapiens, UniProt P08684);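 note: confirmatory qHTS run detecting inhibitors and substrates of CYP3A4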
Sequence (P08684 whole entry): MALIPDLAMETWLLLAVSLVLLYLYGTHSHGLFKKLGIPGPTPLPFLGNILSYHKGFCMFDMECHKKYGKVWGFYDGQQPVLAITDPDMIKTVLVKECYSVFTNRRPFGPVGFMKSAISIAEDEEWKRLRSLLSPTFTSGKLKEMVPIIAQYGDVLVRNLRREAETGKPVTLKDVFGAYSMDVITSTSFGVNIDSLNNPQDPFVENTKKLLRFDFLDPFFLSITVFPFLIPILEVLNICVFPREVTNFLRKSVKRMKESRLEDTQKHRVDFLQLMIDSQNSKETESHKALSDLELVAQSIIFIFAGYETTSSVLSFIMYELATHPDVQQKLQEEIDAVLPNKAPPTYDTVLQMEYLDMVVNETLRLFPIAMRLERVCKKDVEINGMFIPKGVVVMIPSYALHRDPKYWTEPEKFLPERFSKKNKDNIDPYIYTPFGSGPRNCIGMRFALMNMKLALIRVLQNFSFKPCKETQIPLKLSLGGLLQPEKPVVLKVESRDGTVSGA
Details: Potency
PROPERTY MEASURED: AC50

>>> print(df.to_string())
                                   compound          endpoint_value
0                       CCOP(=S)(OCC)SCCSCC    20 µM (inconclusive)
1  CC1C(=O)OC2C1CC[C@@]1(C)C=CC(=O)[C@@]3(C)O[C@@]213 (some centres undefined)  39.8 µM (inconclusive)
2  Cn1c(N)c(C(=O)COC(=O)c2cc(C(F)(F)F)nc3ccccc23)c(=O)n(Cc2ccccc2)c1=O  15.8 µM (inconclusive)
3      O=c1c(O)c(-c2ccc(O)cc2)oc2ccc(O)cc12  12.6 µM (inconclusive)

----------
Biological target: SUMO-activating enzyme (Homo sapiens)
Sequence (Q9UBE0 whole entry): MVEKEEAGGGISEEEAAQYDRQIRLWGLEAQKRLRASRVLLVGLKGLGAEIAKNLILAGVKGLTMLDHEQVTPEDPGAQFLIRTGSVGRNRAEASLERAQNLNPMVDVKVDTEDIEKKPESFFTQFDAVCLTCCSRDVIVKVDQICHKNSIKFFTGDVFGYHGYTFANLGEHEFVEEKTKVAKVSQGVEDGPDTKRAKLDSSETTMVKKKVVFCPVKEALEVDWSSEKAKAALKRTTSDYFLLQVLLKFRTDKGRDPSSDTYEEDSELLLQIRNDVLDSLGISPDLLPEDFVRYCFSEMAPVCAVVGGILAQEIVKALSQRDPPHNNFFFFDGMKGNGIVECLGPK
Sequence (Q9UBT2 whole entry): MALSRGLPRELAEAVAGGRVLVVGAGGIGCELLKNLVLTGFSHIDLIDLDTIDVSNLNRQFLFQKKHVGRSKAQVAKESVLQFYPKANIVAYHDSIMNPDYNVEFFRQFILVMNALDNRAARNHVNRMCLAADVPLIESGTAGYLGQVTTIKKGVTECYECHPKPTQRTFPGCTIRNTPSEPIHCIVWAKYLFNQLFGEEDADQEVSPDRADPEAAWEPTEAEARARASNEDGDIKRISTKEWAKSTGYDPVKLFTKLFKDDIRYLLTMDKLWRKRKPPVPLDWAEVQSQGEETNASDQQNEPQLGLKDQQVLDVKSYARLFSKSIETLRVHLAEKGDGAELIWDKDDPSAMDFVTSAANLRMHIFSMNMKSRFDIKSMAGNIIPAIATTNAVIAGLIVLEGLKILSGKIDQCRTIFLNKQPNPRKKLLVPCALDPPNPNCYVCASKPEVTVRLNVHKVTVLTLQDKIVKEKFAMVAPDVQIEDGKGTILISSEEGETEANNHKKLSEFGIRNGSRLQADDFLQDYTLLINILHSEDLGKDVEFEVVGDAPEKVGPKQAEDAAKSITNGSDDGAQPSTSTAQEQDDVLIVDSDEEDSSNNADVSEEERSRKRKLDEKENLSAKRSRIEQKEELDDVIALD
Experiment: SUMOylation inhibitor hit validation, confirmation, SUMOylation inhibitor project, biochemical, AlphaScreen (AID 2018)
Assay type: functional
The source made the active and inactive calls.
PROPERTY MEASURED: IC50

                                   compound  property_measured    endpoint_value
0  N=C1/C(=C/c2cccn2Cc2ccc(Cl)cc2)C(=O)N=C2SC=CN12               IC50  47.6 µM (active)
1       Cn1c2ccccc2c(=O)n2c(=O)c3ccccc3cc12               IC50  3.28 µM (active)
2  O=C(/C=C/c1cccs1)Nc1scc(-c2ccccc2)c1C(=O)O               IC50  2.74 µM (active)
3  COc1ccc(-c2nc3c(c(SCC(=O)Nc4cccc(O)c4)n2)Cc2c(CO)cnc(C)c2O3)cc1               IC50  9.01 µM (active)
4  C/C(=N\NC(=O)c1cc(O)cc(O)c1)c1ccc(NC(=O)Cc2ccccc2)cc1               IC50  0.74 µM (active)
5  CC1CCCN(c2nc3ccccc3nc2C(C#N)S(=O)(=O)c2ccccc2)C1 (stereo unspecified)               IC50  22.1 µM (active)

----------
Target: FAD-linked sulfhydryl oxidase ALR (Homo sapiens, UniProt P55789)
Sequence (P55789 whole entry): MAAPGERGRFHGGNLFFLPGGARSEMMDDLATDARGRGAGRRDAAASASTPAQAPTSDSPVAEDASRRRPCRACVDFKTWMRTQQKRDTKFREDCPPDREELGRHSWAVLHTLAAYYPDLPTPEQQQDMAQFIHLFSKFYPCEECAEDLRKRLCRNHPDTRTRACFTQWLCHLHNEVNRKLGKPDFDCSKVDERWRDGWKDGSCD
Experiment: inhibitors of human ALR sulfhydryl oxidase, dose response, biochemical, H2O2 detection, luminescence, cherry-pick (AID 493248)
Activity calls are given as the source filed them.
Quick reference for AC50 among some compounds
PROPERTY MEASURED: AC50

>>> print(df.to_string())
                                   compound    endpoint_value
0              Cc1ccccc1NC(=O)Cc1nc(CCl)cs1  10.8 µM (active)
1  Cc1ccc(NC2CCCN(C(=O)c3snnc3C)C2)cc1C (stereo not drawn)  1.64 µM (active)
2              Nc1ccc2[nH]c(-c3ccccc3)nc2c1  2.19 µM (active)

----------
Quick reference for AC50 among some compounds
Target: DNA repair protein RAD52 homolog (Homo sapiens, UniProt P43351)
Sequence (P43351 whole entry): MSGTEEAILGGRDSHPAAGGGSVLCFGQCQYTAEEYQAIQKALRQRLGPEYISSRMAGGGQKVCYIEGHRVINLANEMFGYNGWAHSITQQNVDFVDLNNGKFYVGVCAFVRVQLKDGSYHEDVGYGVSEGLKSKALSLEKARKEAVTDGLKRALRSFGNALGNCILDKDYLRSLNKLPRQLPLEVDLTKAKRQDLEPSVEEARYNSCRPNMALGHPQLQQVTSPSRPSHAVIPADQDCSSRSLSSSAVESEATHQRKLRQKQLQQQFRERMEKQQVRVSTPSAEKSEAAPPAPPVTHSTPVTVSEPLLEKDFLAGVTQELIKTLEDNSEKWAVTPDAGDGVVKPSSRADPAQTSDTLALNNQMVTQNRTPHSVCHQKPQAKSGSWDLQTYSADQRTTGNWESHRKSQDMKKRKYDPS
Assay type: functional, biochemical
Active and inactive are the calls of the source.
PROPERTY MEASURED: AC50

>>> print(df.to_string())
                         chemical_structure      endpoint_value
0  Cc1ccc2cc(C#N)c(NCCNC(S)=NCCCN(C)C)nc2c1C    16.9 µM (active)
1  CC(C)N1CCc2c(sc(NC(=O)c3nc4ccccc4s3)c2C(N)=O)C1    9.55 µM (active)
2  CCN(CC)CCN=C(S)Nc1ccc2nc(N3CCCC3)cc(C)c2c1     3.9 µM (active)
3  CN(C)c1ccc(C=c2c3ccccc3n3c2c2c([n+]3C)CCCC2)cc1   0.914 µM (active)
4  O=C1c2cccc(NCCNCCO)c2C(=O)c2cccc(NCCNCCO)c21  < 0.15 µM (active)
5  CCCCN=C(S)Nc1ccc2nc(N3CCN(CC)CC3)cc(C)c2c1    25.9 µM (active)

----------
Quick reference for IC50 among some compounds
Biological target: Corticotropin-releasing factor receptor 2/Corticotropin-releasing factor-binding protein (Homo sapiens, UniProt P24387+Q13324)
Sequence (Q13324 whole entry): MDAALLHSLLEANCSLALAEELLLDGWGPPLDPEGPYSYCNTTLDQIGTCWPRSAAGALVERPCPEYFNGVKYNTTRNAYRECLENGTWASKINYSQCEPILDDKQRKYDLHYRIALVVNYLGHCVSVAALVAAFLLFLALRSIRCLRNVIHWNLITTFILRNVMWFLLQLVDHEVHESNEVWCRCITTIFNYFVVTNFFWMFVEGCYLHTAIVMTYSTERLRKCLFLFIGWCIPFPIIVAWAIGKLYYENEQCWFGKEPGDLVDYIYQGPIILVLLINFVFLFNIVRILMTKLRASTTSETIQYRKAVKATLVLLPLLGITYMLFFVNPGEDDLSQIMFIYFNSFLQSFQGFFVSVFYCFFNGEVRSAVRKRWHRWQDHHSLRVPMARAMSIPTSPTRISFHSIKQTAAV
Sequence (P24387 whole entry): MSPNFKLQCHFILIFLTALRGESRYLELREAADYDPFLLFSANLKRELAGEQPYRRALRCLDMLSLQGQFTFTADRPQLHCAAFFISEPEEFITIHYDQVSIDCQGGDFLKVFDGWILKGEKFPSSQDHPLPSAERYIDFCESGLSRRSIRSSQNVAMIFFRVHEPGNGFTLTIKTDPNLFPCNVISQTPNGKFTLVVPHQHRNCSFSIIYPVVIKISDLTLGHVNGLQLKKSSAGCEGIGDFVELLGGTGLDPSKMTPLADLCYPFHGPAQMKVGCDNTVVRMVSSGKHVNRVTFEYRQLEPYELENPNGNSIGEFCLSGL
Test: Dose Response confirmation of uHTS hits for small molecule antagonists of the CRF-binding protein and CRF-R2 receptor complex.
Type: functional
Conditions: read-out: IC50_Mean
The source made the active and inactive calls.
PROPERTY MEASURED: IC50

In [3]: df
Out[3]:
                                    compound        endpoint_value
 0  COc1ccc(NC(=O)CN(C)C(=O)c2cccc(S(=O)(=O)N3CCN(c4ccc(F)cc4)CC3)c2)cc1  > 47.1 µM (inactive)
 1     CCOc1ccc(Cl)cc1S(=O)(=O)n1nnc2ccccc21      3.56 µM (active)
 2  CCN(CC)C1Oc2cc3c(cc2C(c2cccc(OC)c2O)C1C)OCO3 (stereo not given)      2.99 µM (active)
 3  COc1cccc(NC(=O)C2CCCN(S(=O)(=O)c3ccc(-n4cnnn4)cc3)C2)c1 (stereo not given)  > 47.1 µM (inactive)
 4              O=C(c1ccccc1)c1nc2ccccc2nc1O  > 47.1 µM (inactive)
 5  O=C(CSc1nc(-c2ccco2)cc(C(F)(F)F)n1)NCCCN1CCOCC1  > 47.1 µM (inactive)
 6    COc1ccc(C(=O)Nc2cc(=O)n(C)c(=O)n2C)cc1   < 0.368 µM (active)
 7         COc1ccc2oc(C(=O)NCCC(C)C)c(C)c2c1  > 47.1 µM (inactive)
 8   CCOC(=O)c1nnn(-c2nonc2N)c1CN(C)C1CCCCC1  > 47.1 µM (inactive)
 9  COc1ccc(C(=O)Nc2ccc(C3CC3(Cl)Cl)cc2)cc1 (stereo not given)  > 47.1 µM (inactive)
10  CC(C)N1CCN(Cc2nc(-c3ccccc3)cs2)CC1CCO (stereo not given)  > 47.1 µM (inactive)
11           S=c1[nH]c2ccccc2n2c(=S)[nH]nc12  > 47.1 µM (inactive)
12  CCOc1ccc(NC(=O)CSc2ccc3nnc(-c4cccnc4)n3n2)cc1  > 47.1 µM (inactive)
13  O=C(COC(=O)C1CCN(S(=O)(=O)c2ccc3c(c2)OCCO3)CC1)NC1CCS(=O)(=O)C1 (stereo not given)  > 47.1 µM (inactive)
14  CC(=O)Nc1ccc(OCC(O)CN2C(C)(C)CC(O)CC2(C)C)cc1 (stereo not given)  > 47.1 µM (inactive)
